Some compounds, each annotated with its measured pKi.
- TESTED_ON: Proto-oncogene tyrosine-protein kinase Src (Homo sapiens)
- Sequence (P12931 2-536 limits assumed): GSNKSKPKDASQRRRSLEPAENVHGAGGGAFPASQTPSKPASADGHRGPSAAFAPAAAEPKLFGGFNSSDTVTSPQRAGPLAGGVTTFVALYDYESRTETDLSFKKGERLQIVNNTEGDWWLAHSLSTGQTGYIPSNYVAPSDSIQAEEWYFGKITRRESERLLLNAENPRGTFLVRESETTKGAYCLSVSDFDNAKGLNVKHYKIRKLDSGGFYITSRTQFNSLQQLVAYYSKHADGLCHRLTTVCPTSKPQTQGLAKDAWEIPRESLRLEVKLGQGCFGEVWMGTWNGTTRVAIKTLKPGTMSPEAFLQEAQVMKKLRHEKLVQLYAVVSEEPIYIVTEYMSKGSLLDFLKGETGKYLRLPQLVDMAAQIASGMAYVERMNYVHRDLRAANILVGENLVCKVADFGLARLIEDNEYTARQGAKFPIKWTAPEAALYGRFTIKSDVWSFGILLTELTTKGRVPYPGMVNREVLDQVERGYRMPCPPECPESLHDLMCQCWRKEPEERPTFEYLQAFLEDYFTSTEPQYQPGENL
pKi: −log10 of the molar value.

What pKi appears in the records for this compound with Proto-oncogene tyrosine-protein kinase Src (Homo sapiens)? O=P(O)(O)[C@H]1C2CCC(CC2)[C@@H]1Nc1nc(-c2c[nH]c3ncc(F)cc23)ncc1F (mixture of isomers) < 5.40

###

Some compounds, each annotated with its measured Ki.
- TESTED_ON: Glycogen synthase kinase-3 (Homo sapiens, UniProt P49840+P49841)
- PROTOCOL_DETAILS: Inhibition of GSK3 (unknown origin)
- Type: protein assay
Form entry: value (nM) — number only.

Here are 8 compounds together with their reported answers.
compound="Cc1nnc([C@H]2C3CCC(CC3)[C@@H]2Nc2nc(-c3c[nH]c4ncc(F)cc34)ncc2F)o1 (mixture of isomers)" reported_value=1100
compound="Oc1cc([C@H]2C3CCC(CC3)[C@@H]2Nc2nc(-c3c[nH]c4ncc(F)cc34)ncc2F)on1 (mixture of isomers)" reported_value=1600
compound="O=c1[nH]c(=O)n(C[C@H]2C3CCC(CC3)[C@@H]2Nc2nc(-c3c[nH]c4ncc(F)cc34)ncc2F)o1 (mixture of isomers)" reported_value=23
compound="CNC(=O)[C@H]1C2CCC(CC2)[C@@H]1Nc1nc(-c2c[nH]c3ncc(F)cc23)ncc1F (mixture of isomers)" reported_value=230
compound="Oc1cc([C@H]2C3CCC(CC3)[C@@H]2Nc2nc(-c3c[nH]c4ncc(F)cc34)ncc2F)[nH]n1 (mixture of isomers)" reported_value=1200
compound="CS(=O)(=O)[C@H]1C2CCC(CC2)[C@@H]1Nc1nc(-c2c[nH]c3ncc(F)cc23)ncc1F (mixture of isomers)" reported_value=77
compound="O=P(O)(O)CC[C@H]1C2CCC(CC2)[C@@H]1Nc1nc(-c2c[nH]c3ncc(F)cc23)ncc1F (mixture of isomers)" reported_value=120
compound="Oc1cc([C@H]2C3CCC(CC3)[C@@H]2Nc2nc(-c3c[nH]c4ncc(F)cc34)ncc2F)no1 (mixture of isomers)" reported_value=60

Now consider a different compound.
I'd like to know its Ki. The compound in question is Cc1noc([C@H]2C3CCC(CC3)[C@@H]2Nc2nc(-c3c[nH]c4ncc(F)cc34)ncc2F)n1 (mixture of isomers) 980

###

- Test system: Influenza A virus
- PROTOCOL_DETAILS: Antiviral activity against influenza A virus A/PR/8/34 strain incubated with MDCK cells assessed as reduction of viral RNA level equal to 1% of control level after 72 hrs by branched DNA assay
- Type: functional, organism-based
- MEASUREMENT_SETUP: A/Puerto Rico/8/1934(H1N1)
QUANTITY_NAME: EC99 (µM)
Form entry: value (µM) — number only.

compound="CC(=O)NS(=O)(=O)[C@H]1C2CCC(CC2)[C@@H]1Nc1nc(-c2c[nH]c3ncc(F)cc23)ncc1F (mixture of isomers)" quantity_name=EC99 reported_value=0.16

What EC99 appears in the records for this compound with Influenza A virus? Cc1noc([C@H]2C3CCC(CC3)[C@@H]2Nc2nc(-c3c[nH]c4ncc(F)cc34)ncc2F)n1 (mixture of isomers) 1.2

###

- TESTED_ON: Rho-associated protein kinase (Homo sapiens, UniProt O75116+Q13464)
- PROTOCOL_DETAILS: Inhibition of ROCK (unknown origin)
- Type: protein-complex assay
QUANTITY_NAME: Ki

Here are 3 compounds together with their reported answers.
compound="CC(O)[C@H]1C2CCC(CC2)[C@@H]1Nc1nc(-c2c[nH]c3ncc(F)cc23)ncc1F (mixture of isomers)" reported_value="0.31 µM"
compound="CNC(=O)[C@H]1C2CCC(CC2)[C@@H]1Nc1nc(-c2c[nH]c3ncc(F)cc23)ncc1F (mixture of isomers)" reported_value="> 4 µM"
compound="Fc1cnc2[nH]cc(-c3ncc(F)c(N[C@H]4C5CCC(CC5)[C@@H]4c4nnn[nH]4)n3)c2c1 (mixture of isomers)" reported_value="> 4 µM"

Now consider a different compound.
What Ki appears in the records for this compound with Rho-associated protein kinase (Homo sapiens, UniProt O75116+Q13464)? CS(=O)(=O)[C@H]1C2CCC(CC2)[C@@H]1Nc1nc(-c2c[nH]c3ncc(F)cc23)ncc1F (mixture of isomers) 2.7 µM

###

Some compounds, each annotated with its measured Ki.
- TESTED_ON: Phosphatidylinositol 4,5-bisphosphate 3-kinase catalytic subunit gamma isoform (Homo sapiens)
- Sequence (P48736 whole entry, canonical isoform): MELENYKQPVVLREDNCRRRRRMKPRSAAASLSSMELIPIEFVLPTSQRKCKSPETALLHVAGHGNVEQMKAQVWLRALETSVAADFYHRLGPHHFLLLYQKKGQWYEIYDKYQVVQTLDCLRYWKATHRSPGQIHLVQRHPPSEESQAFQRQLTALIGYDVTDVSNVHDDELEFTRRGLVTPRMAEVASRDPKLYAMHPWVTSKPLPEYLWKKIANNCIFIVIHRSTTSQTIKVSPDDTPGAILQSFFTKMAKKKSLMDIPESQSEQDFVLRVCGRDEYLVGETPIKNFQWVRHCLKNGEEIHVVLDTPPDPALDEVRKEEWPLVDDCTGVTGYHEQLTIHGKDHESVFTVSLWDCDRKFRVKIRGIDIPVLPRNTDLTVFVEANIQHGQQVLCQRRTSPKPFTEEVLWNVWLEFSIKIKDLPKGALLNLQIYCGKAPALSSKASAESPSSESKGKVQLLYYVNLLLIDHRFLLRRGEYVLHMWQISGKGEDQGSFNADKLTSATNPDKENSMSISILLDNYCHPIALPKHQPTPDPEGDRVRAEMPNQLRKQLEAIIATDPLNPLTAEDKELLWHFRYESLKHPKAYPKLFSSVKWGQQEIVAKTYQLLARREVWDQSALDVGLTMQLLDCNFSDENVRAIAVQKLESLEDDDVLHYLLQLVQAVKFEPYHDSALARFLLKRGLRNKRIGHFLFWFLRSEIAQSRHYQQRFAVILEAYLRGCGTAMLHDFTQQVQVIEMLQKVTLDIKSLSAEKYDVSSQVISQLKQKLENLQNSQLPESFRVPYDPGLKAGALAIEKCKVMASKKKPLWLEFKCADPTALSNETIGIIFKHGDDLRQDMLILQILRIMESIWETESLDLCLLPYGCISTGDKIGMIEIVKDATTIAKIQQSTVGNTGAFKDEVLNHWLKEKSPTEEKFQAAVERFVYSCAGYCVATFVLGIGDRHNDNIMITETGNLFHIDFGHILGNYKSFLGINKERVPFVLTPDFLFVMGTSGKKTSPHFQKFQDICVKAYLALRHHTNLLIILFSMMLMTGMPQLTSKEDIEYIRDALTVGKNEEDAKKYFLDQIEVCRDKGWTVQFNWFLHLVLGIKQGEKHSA
- PROTOCOL_DETAILS: Inhibition of PI3Kgamma (unknown origin)
# output: numeric value plus its unit

compound="Oc1cc([C@H]2C3CCC(CC3)[C@@H]2Nc2nc(-c3c[nH]c4ncc(F)cc34)ncc2F)no1 (mixture of isomers)" quantity_name=Ki reported_value="750 nM"

I'd like to know its Ki. The compound in question is Cc1noc([C@H]2C3CCC(CC3)[C@@H]2Nc2nc(-c3c[nH]c4ncc(F)cc34)ncc2F)n1 (mixture of isomers) 1400 nM

Subsequent entry: Fc1cnc2[nH]cc(-c3ncc(F)c(N[C@H]4C5CCC(CC5)[C@@H]4c4nnn[nH]4)n3)c2c1 (mixture of isomers) 2900 nM

Subsequent entry: Oc1cc([C@H]2C3CCC(CC3)[C@@H]2Nc2nc(-c3c[nH]c4ncc(F)cc34)ncc2F)on1 (mixture of isomers) 690 nM

###

- System: Influenza A virus
- PROTOCOL_DETAILS: Antiviral activity against Influenza A virus A/PR/8/34 strain incubated with MDCK cells assessed as cell protection after 72 hrs by phenotypic cell protection assay
- Format: functional, organism-based
- MEASUREMENT_SETUP: A/Puerto Rico/8/1934(H1N1)
QUANTITY_NAME: pIC50
When answering, recall that pIC50 equals minus log10 of the concentration in mol/L, and write that number alone.

Here are 6 molecules together with their reported answers.
molecule="Fc1cnc2[nH]cc(-c3ncc(F)c(N[C@H]4C5CCC(CC5)[C@@H]4c4nnn[nH]4)n3)c2c1 (mixture of isomers)" tested_on="Influenza A virus" reported_value=7.60
molecule="Cc1nnc([C@H]2C3CCC(CC3)[C@@H]2Nc2nc(-c3c[nH]c4ncc(F)cc34)ncc2F)o1 (mixture of isomers)" tested_on="Influenza A virus" reported_value=6.89
molecule="CS(=O)(=O)[C@H]1C2CCC(CC2)[C@@H]1Nc1nc(-c2c[nH]c3ncc(F)cc23)ncc1F (mixture of isomers)" tested_on="Influenza A virus" reported_value=6.64
molecule="O=C(O)[C@H]1C2CCC(CC2)[C@@H]1Nc1nc(-c2c[nH]c3ncc(F)cc23)ncc1F [PIMODIVIR]" tested_on="Influenza A virus" reported_value=8.70
molecule="OCC(O)[C@H]1C2CCC(CC2)[C@@H]1Nc1nc(-c2c[nH]c3ncc(F)cc23)ncc1F (mixture of isomers)" tested_on="Influenza A virus" reported_value=7.17
molecule="O=P(O)(O)[C@H]1C2CCC(CC2)[C@@H]1Nc1nc(-c2c[nH]c3ncc(F)cc23)ncc1F (mixture of isomers)" tested_on="Influenza A virus" reported_value=7.04

I'd like to know its pIC50. The molecule in question is Cc1noc([C@H]2C3CCC(CC3)[C@@H]2Nc2nc(-c3c[nH]c4ncc(F)cc34)ncc2F)n1 (mixture of isomers) 6.68

###

- TESTED_ON: Tyrosine-protein kinase JAK2 (Homo sapiens, UniProt O60674)
- Sequence (O60674 whole entry): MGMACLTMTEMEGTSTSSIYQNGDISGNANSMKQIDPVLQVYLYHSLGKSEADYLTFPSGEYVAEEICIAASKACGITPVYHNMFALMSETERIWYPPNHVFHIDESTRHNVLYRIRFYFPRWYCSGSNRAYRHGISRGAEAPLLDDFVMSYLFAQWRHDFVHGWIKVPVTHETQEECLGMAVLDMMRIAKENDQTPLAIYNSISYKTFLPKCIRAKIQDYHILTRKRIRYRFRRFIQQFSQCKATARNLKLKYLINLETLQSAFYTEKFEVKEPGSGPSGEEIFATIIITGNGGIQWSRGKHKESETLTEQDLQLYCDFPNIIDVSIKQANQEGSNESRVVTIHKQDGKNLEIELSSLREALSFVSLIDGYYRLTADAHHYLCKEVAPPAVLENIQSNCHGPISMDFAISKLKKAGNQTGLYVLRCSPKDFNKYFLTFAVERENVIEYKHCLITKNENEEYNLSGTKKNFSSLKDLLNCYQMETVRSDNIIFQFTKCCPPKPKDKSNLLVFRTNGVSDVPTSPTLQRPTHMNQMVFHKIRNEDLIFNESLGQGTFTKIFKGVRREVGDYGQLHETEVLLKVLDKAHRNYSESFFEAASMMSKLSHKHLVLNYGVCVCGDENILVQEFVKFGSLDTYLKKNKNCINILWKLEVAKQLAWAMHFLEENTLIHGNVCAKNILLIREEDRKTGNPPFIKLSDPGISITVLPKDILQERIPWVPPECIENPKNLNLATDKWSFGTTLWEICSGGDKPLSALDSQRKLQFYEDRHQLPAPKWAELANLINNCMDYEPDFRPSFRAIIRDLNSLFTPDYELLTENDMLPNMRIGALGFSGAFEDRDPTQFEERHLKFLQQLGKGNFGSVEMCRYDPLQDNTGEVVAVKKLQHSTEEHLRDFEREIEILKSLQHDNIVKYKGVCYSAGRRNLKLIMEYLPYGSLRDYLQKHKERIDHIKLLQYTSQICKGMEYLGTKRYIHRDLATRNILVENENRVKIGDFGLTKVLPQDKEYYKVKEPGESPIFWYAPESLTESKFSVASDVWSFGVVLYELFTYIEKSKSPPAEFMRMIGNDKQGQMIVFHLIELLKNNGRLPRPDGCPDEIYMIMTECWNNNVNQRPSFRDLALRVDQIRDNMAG
QUANTITY_NAME: pKi
When answering, recall that pKi equals minus log10 of the concentration in mol/L, and write that number alone.

molecule="NS(=O)(=O)[C@H]1C2CCC(CC2)[C@@H]1Nc1nc(-c2c[nH]c3ncc(F)cc23)ncc1F (mixture of isomers)" tested_on="Tyrosine-protein kinase JAK2 (Homo sapiens, UniProt O60674)" quantity_name=pKi reported_value=6.08
molecule="Oc1cc([C@H]2C3CCC(CC3)[C@@H]2Nc2nc(-c3c[nH]c4ncc(F)cc34)ncc2F)no1 (mixture of isomers)" tested_on="Tyrosine-protein kinase JAK2 (Homo sapiens, UniProt O60674)" quantity_name=pKi reported_value=6.70
molecule="O=P(O)(O)CC[C@H]1C2CCC(CC2)[C@@H]1Nc1nc(-c2c[nH]c3ncc(F)cc23)ncc1F (mixture of isomers)" tested_on="Tyrosine-protein kinase JAK2 (Homo sapiens, UniProt O60674)" quantity_name=pKi reported_value=6.21
molecule="O=c1[nH]c(=O)n(C[C@H]2C3CCC(CC3)[C@@H]2Nc2nc(-c3c[nH]c4ncc(F)cc34)ncc2F)o1 (mixture of isomers)" tested_on="Tyrosine-protein kinase JAK2 (Homo sapiens, UniProt O60674)" quantity_name=pKi reported_value=6.57
molecule="CC(O)[C@H]1C2CCC(CC2)[C@@H]1Nc1nc(-c2c[nH]c3ncc(F)cc23)ncc1F (mixture of isomers)" tested_on="Tyrosine-protein kinase JAK2 (Homo sapiens, UniProt O60674)" quantity_name=pKi reported_value=6.62

I'd like to know its pKi. The molecule in question is OCC(O)[C@H]1C2CCC(CC2)[C@@H]1Nc1nc(-c2c[nH]c3ncc(F)cc23)ncc1F (mixture of isomers) 6.41

Subsequent entry: CS(=O)(=O)[C@H]1C2CCC(CC2)[C@@H]1Nc1nc(-c2c[nH]c3ncc(F)cc23)ncc1F (mixture of isomers) 6.13

Subsequent entry: CNC(=O)[C@H]1C2CCC(CC2)[C@@H]1Nc1nc(-c2c[nH]c3ncc(F)cc23)ncc1F (mixture of isomers) 5.96
